Tested on: Bacillus subtilis ATCC 6633
assay.explanation: Broth microdilution MIC/MBC
Format: cell-based
experimental.readout: MIC (µg/mL)
Report only the number, with the unit µg/mL understood.

Below, 4 compounds whose answers are already recorded.
compound=Cc1cccc(/C=N/NC(=O)c2ccc(O)cc2O)c1 experimental_readout=MIC result_value=62.5
compound=O=C(N/N=C/c1cc(I)cc(I)c1O)c1ccc(O)cc1O experimental_readout=MIC result_value=1.95
compound="CO/N=C(\\C(=O)N[C@@H]1C(=O)N2C(C(=O)O)=C(COC(N)=O)CS[C@H]12)c1ccco1 [CFX, cefuroxime, reference compound]" experimental_readout=MIC result_value=15.62
compound="O=C1CN(/N=C/c2ccc([N+](=O)[O-])o2)C(=O)N1 [NIT, nitrofurantoin, reference compound]" experimental_readout=MIC result_value=3.91

From here, focus on the item given below.
[ask] Need MIC of CC1(C)S[C@@H]2[C@H](NC(=O)[C@H](N)c3ccccc3)C(=O)N2[C@H]1C(=O)O [APC, ampicillin, reference compound] , thanks.
[reply] 62.5

====

Documented Selectivity Index across a set of compounds
System: LN-229
assay.explanation: MTT antiproliferative assay
Format: cell-based, human
setup.conditions: ratio IC50 HEK-293 / IC50 LN-229
Experimental: The in vitro studies were performed on the reference line HEK-293 (human embryonic kidney cells, ATCC® CRL-1573™) and […] human cancer cell lines: 769-P (adenocarcinoma, renal cells, ATCC® CRL-1933™) and HepG2 (carcinoma, hepatocellular, ATCC® HB-8065™), H1563 (adenocarcinoma, non-smallcell lung cancer, ATCC® CRL-5875™), LN-229 (glioblastoma, ATCC® CRL-2611™). […]

mol=O=C(N/N=C/c1ccccc1F)c1ccc(O)cc1O result_value=1.94
mol=O=C(N/N=C/c1ccccc1[N+](=O)[O-])c1ccc(O)cc1O result_value="1.14 × 10^3"
mol=O=C(N/N=C/c1ccccc1Br)c1ccc(O)cc1O result_value="5.85 × 10^2"

From here, focus on the item given below.
[ask] Need Selectivity Index of O=C(N/N=C/c1ccccc1Cl)c1ccc(O)cc1O , thanks.
[reply] 2.85

====

System: Staphylococcus aureus ATCC 29213
assay.explanation: Broth microdilution MIC/MBC
Assay type: cell-based
experimental.readout: MBC/MIC

mol=CCCCOc1ccc(/C=N/NC(=O)c2ccc(O)cc2O)cc1 result_value="> 1"
mol=CCCc1ccc(/C=N/NC(=O)c2ccc(O)cc2O)cc1 result_value="> 1"

[ask] Need MBC/MIC of CCOc1ccc(/C=N/NC(=O)c2ccc(O)cc2O)cc1 , thanks.
[reply] > 1

[ask] Consider next the compound CCCOc1ccc(/C=N/NC(=O)c2ccc(O)cc2O)cc1 in the same way.
[reply] > 1

[ask] Consider next the compound COc1ccc(/C=N/NC(=O)c2ccc(O)cc2O)cc1Cl in the same way.
[reply] 1

====

Reported MIC values, Proteus mirabilis ATCC 12453.

mol=COc1cc(/C=N/NC(=O)c2ccc(O)cc2O)cc(I)c1O result_value="> 1000 µg/mL"
mol=O=C(N/N=C/c1cc(Br)c(O)c(Br)c1)c1ccc(O)cc1O result_value="1000 µg/mL"

From here, focus on the item given below.
[ask] Need MIC of Cc1ccc(/C=N/NC(=O)c2ccc(O)cc2O)cc1 , thanks.
[reply] > 1000 µg/mL
